Test description: Stability investigation of the lyophilisate (visual inspection, reverse HPLC)
Assay type: physicochemical
Condition notes: storage 2-8° C., T = 24 M
Quantity kind: Amount/Contents of lyophilisate (%)
A number alone suffices; assume %.

- C[C@@H]1NC(=O)CNC(=O)[C@H](CCC(=O)O)NC(=O)[C@@H]2CCCN2C(=O)[C@H]([C@@H](C)O)NC(=O)[C@H](CCC(=O)O)NC(=O)[C@H](CCCNC(=N)N)NC(=O)[C@H](CCC(N)=O)NC(=O)CNC(=O)CCCNC(=O)C[C@@H](C(=O)O)NC(=O)[C@H](Cc2ccc(O)cc2)NC(=O)[C@H](Cc2c[nH]c3ccccc23)NC(=O)[C@@H]2CCCN2C(=O)[C@H](CCCCN)NC(=O)[C@H](C)NC(=O)[C@H](CCC(=O)O)NC1=O [SEQ ID NO: 5]: 99

Note: attention shifts to another entry.
For C[C@@H]1NC(=O)CNC(=O)[C@H](CCC(=O)O)NC(=O)[C@@H]2CCCN2C(=O)[C@H]([C@@H](C)O)NC(=O)[C@H](CCC(=O)O)NC(=O)[C@H](CCCNC(=N)N)NC(=O)[C@H](CCC(N)=O)NC(=O)CNC(=O)[C@@H]2CCCN2C(=O)[C@H](CO)NC(=O)[C@@H](N)CCCCNC(=O)CC[C@@H](C(=O)O)NC(=O)[C@H](Cc2ccc(O)cc2)NC(=O)[C@H](Cc2c[nH]c3ccccc23)NC(=O)[C@@H]2CCCN2C(=O)[C@H](CCCCN)NC(=O)[C@H](C)NC(=O)[C@H](CCC(=O)O)NC1=O [SEQ ID NO: 2] , what is its reported Amount/Contents of lyophilisate?
99

---

Below, each of the compounds is paired with its reported Purity of lyophilisate (stability study) value.
Test description: Stability investigation of the lyophilisate (visual inspection, reverse HPLC)
Assay type: physicochemical
Condition notes: storage 25° C./60% rH, T = 0
A number alone suffices; assume %.

• C[C@@H]1NC(=O)CNC(=O)[C@H](CCC(=O)O)NC(=O)[C@@H]2CCCN2C(=O)[C@H]([C@@H](C)O)NC(=O)[C@H](CCC(=O)O)NC(=O)[C@H](CCCNC(=N)N)NC(=O)[C@H](CCC(N)=O)NC(=O)CNC(=O)CCNC(=O)CC[C@@H](C(=O)O)NC(=O)[C@H](Cc2ccc(O)cc2)NC(=O)[C@H](Cc2c[nH]c3ccccc23)NC(=O)[C@@H]2CCCN2C(=O)[C@H](CCCCN)NC(=O)[C@H](C)NC(=O)[C@H](CCC(=O)O)NC1=O = 99

Note: attention shifts to another entry.
For `C[C@@H]1NC(=O)CNC(=O)[C@H](CCC(=O)O)NC(=O)[C@@H]2CCCN2C(=O)[C@H]([C@@H](C)O)NC(=O)[C@H](CCC(=O)O)NC(=O)[C@H](CCCNC(=N)N)NC(=O)[C@H](CCC(N)=O)NC(=O)CNC(=O)[C@@H]2CCCN2C(=O)[C@H](CO)NC(=O)[C@@H](N)CCCCNC(=O)CC[C@@H](C(=O)O)NC(=O)[C@H](Cc2ccc(O)cc2)NC(=O)[C@H](Cc2c[nH]c3ccccc23)NC(=O)[C@@H]2CCCN2C(=O)[C@H](CCCCN)NC(=O)[C@H](C)NC(=O)[C@H](CCC(=O)O)NC1=O` , what is its reported Purity of lyophilisate (stability study)?
96
